Attribution: PubChem BioAssay

For each record, write down the corresponding composite z-score.
Test system: glycogen synthase kinase-3 (GSK3A per assay name; protocol says GSK3B)
Assay: GSK3 binders on small-molecule microarrays, primary screen, biochemical, small-molecule microarray, 635 nm fluorescence, GSK3A (AID 1103); note: the record names both GSK3A and GSK3B
Details: small-molecule microarray binding, fluorescence 635 nm; higher = more signal

Batch request: composite z-score per item, same order as input.
1. [N-]=[N+]=NCc1ccccc1[C@@H]1OC(c2ccc(OCCCO)cc2)=N[C@]1(Cc1ccccc1)C(=O)NCc1ccccc1
2. COCCCNC(=O)[C@@]1(Sc2ccc(C)cc2)CC(=O)N(C2CCCCC2)[C@@H]1c1ccc(CO)cc1I

Result:
[0.113, 1.28]

Batch request: composite z-score per item, same order as input.
1. CCCCCN1CC=CC23O[C@@H]4C=CCOC(=O)[C@@H]4[C@H]2C(=O)N(CCCCCO)[C@@H]3C1=O (some centres undefined)
2. O=C1O[C@H](c2ccccc2)[C@H](c2ccccc2)N2[C@H]1[C@@H](C(=O)N1CCN(c3ncccn3)CC1)[C@]1(C(=O)Nc3ccccc31)[C@H]2c1ccc(O)cc1

Result:
-1.15
0.799

====

Test: yeast growth modulation, basal conditions, primary screen, YJM789 clinical isolate, OD600, 24 h (AID 1089);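 note: growth of clinical yeast isolate S. cerevisiae YJM 789 seeded 1000 cells per well; test concentration not given here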
Conditions: S. cerevisiae YJM789 growth, higher = more signal, called active from +8 up or from −8 down
yes means recorded z-score is 0.5 or above; no means it is below 0.5.

These solved cases illustrate the format of a correct answer.
C=C(CCCC)C(=O)CC[C@H](OC(=O)c1cccnc1)c1ccc(CO)o1 | no
CC(=O)n1cc(C(O)C2C=CC3C(=O)N(c4ccccc4)C(=O)C3N2Nc2ccccc2F)c2ccccc21 (configuration not stated) | no
NC(=O)NCC#Cc1ccc2c(c1)[C@]1(C(=O)N2)[C@H](C(=O)N2CCCCCCC2)[C@H]2C(=O)O[C@H](c3ccccc3)[C@H](c3ccccc3)N2[C@@H]1c1ccc(O)cc1 | no

Ask: Form field: z-score at least 0.5? Entry: NCCCC[C@@H]1NC(=O)[C@H]2C[C@@H](C(=O)NCc3ccc(F)cc3)[C@@H](c3cccc(OCCO)c3)N2C1=O
Result: yes

Ask: Next up: CCCCCCc1nc(-c2ccc(OC)nc2)cc2c1[Si](C(C)C)(C(C)C)OC2
Result: no

Ask: Next up: COc1ccc([Si](C)(C)[C@H]2[C@H](CCO)O[C@@]3(C(=O)N(Cc4ccc(N5CCOC5=O)cc4)c4ccccc43)[C@@H]2C)cc1
Result: yes

Ask: Next up: O=C(NCC(F)(F)F)[C@@H]1c2ccccc2C(=O)N(CC23CC4CC(CC(C4)C2)C3)[C@H]1c1ccc(CO)cc1
Result: no

====

Assay: fission yeast growth modulation, primary screen, strain 972, OD600, 24 h, no modulator (AID 1090);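 note: basal condition with compound alone and no growth modifier present; test concentration not given here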
Settings: S. pombe 972 growth, higher = more signal, called active from +8 up or from −8 down
readout_label: z-score
Numbers only.

These solved cases illustrate the format of a correct answer.
COc1cc2c(cc1O)C(c1ccc(CN3CCCC3)cc1)N(Cc1cccc(OC(F)(F)F)c1)CC2 (stereo not given) | -20.2
Cc1ccc(S[C@]2(C(=O)NCC(F)(F)F)CC(=O)N(C3CCCCC3)[C@@H]2c2ccc(CO)cc2)cc1 | -0.211
O=C(NCCO)C1=C[C@H](Oc2ccccc2I)[C@@H](O)[C@H](NCc2ccc(F)cc2)C1 | -20.5
COCC(=C=CC[C@@H](O)c1cccc(OCCO)c1)C[C@@H](O)COCc1ccccc1 | -1.53
CCC[C@@H]1C=C(C(=O)OCC)[C@H](c2ccccc2)N1S(=O)(=O)c1ccc(C)cc1 | 1.67

Batch request: z-score per item, same order as input.
1. C=CCNC(=O)[C@@H]1[C@H]2C(=O)O[C@H](c3ccccc3)[C@H](c3ccccc3)N2[C@H](c2ccccc2OCCO)[C@@]12C(=O)N(C(=O)OCCOC)c1ccc(C#CCCO)cc12
2. COc1ccc([Si](C)(C)[C@H]2[C@H](CCn3cc([C@H](O)c4ccccc4)nn3)O[C@@]3(C(=O)N(C)c4c(Br)cc(C)cc43)[C@@H]2C)cc1
3. CCOC(=O)C1=CC[C@@H](c2ccc(F)cc2)N(S(=O)(=O)c2ccc(C)cc2)[C@H]1c1ccc([N+](=O)[O-])cc1
4. C[N+](C)(C)CCCCCCNC(=O)[C@H]1C[C@H]2C(=O)NCC(=O)N2[C@H]1c1cccc(OCCO)c1
5. Cc1c(-c2ccc(-c3ccc(Cl)c(Cl)c3)o2)nc(-c2ccccc2)c2c1CO[Si]2(C(C)C)C(C)C

Result:
[0.619, 0.467, 1.32, 0.198, -1.69]

====

For each record, write down the corresponding z-score.
Target: NADPH oxidase 2 (Homo sapiens)
Experiment: NOX2-dependent H2O2 signal modulators, primary screen, NOX inhibitor project, cell-based, HEK293-NOX2, PMA-stimulated, Amplex Red fluorescence (AID 1159); note: test concentration not given here
Conditions: 45 min, higher = more signal, called active from +8 up or from −8 down
Calls of active or inactive are those of the source.

These solved cases illustrate the format of a correct answer.
O=C1OCCC=C[C@H]2OC34C=CCN(c5ccc(Cl)cc5)C(=O)[C@H]3N(CCO)C(=O)[C@@H]4C12 (stereo not given in full) | 1.69 (inactive)
COc1ccc([Si](C)(C)[C@@H]2[C@@H](CCO)O[C@]3(C(=O)N(Cc4ccccc4)c4ccc(N5C(=O)c6ccccc6Oc6ccccc65)cc43)[C@H]2C)cc1 | 0.212 (inactive)
CCCC[C@@H]1C[C@H]1[C@@H](NC(=O)Cc1ccccc1)c1ccc(Cl)cc1 | -0.795 (inactive)
COC(=O)[C@@]1(Cc2ccc(F)cc2)[C@H]2c3cc(C(=O)N(C)C)n(CCO)c3C[C@H]2CN1C(=O)c1ccccc1 | 0.254 (inactive)
COC(=O)C1(CC(C)C)C=C2C(=C(C(C)C)C(=O)C2C)CN1 (stereo not given) | 0.377 (inactive)

Batch request: z-score per item, same order as input.
1. CN(C)CCCC[C@@H]1NC(=O)[C@@H]2C[C@H](C(=O)NCCCCCCNC(=O)CS)[C@H](c3cccc(OCCO)c3)N2C1=O
2. CCOC(=O)C[C@H]1[C@H](OC(=O)c2ccc(C(=O)c3ccccc3)cc2)[C@@H](NC(=O)c2ccc3ccccc3c2)c2cc(OCCCO)ccc2N1C(=O)c1ccc2ccccc2n1
3. C=CC(CO)NC(=O)OCC1c2ccccc2-c2ccccc21 (stereo not given)
4. COCCCNC(=O)[C@@]1(Sc2ccc(C)cc2)CC(=O)N(C2CCCCC2)[C@@H]1c1ccc(CO)cc1I
5. O=C1OCCC=C[C@H]2OC34C=CCN(CCN5CCOCC5)C(=O)[C@H]3N(CCCO)C(=O)[C@@H]4C12 (stereo not given in full)
6. C=C(/C(=C/C[C@@H](OC(C)=O)c1ccccc1OCCO)c1cc(C(=O)OC)ccc1OC)C(C)C

Result:
2.03 (inactive)
0.412 (inactive)
-0.385 (inactive)
0.625 (inactive)
-0.433 (inactive)
1.58 (inactive)

Batch request: z-score per item, same order as input.
1. COc1cccc(C[C@H]2C[C@@H](CO[Si](C(C)C)(C(C)C)C(C)C)N3C(=O)[C@@]4(C(C)=O)O[C@@]23[C@@H]2C(=O)N(C)C(=O)[C@@H]24)c1
2. CCCCCN1CC=CC23O[C@@H]4C=CCOC(=O)[C@@H]4[C@H]2C(=O)N(CCCCCO)[C@@H]3C1=O (stereo not given in full)
3. C[C@]1(C(=O)NCC(F)(F)F)c2ccccc2C(=O)N(Cc2ccc(OC(F)(F)F)cc2)[C@H]1c1ccc(CO)cc1
4. O=C1c2ccccc2[C@@]2(Cc3ccccc3N(Cc3ccccc3)C2=O)[C@H](c2ccc(CO)cc2)N1Cc1ccccc1
5. CC(C)N1CC=CC23O[C@@H]4C=CCCOC(=O)C4[C@H]2C(=O)N(CCCCCO)[C@@H]3C1=O (stereo not given in full)
6. O=C1C2C=CC(C(O)c3ccc([N+](=O)[O-])cc3)N(Nc3ccccc3)C2C(=O)N1c1ccccc1 (stereo not given)
7. CC(C)C(=C=CC[C@@H](O)c1cccc(OCCO)c1)CCO

Result:
["-0.175 (inactive)", "1.35 (inactive)", "1.45 (inactive)", "0.0584 (inactive)", "1.42 (inactive)", "-2.02 (inactive)", "-0.841 (inactive)"]

Batch request: z-score per item, same order as input.
1. C[N+](C)(C)CCCCCCNC(=O)[C@H]1C[C@H]2C(=O)NCC(=O)N2[C@H]1c1cccc(OCCO)c1
2. COCCOC(=O)N1C(=O)[C@@]2(c3cc(C#CC4(O)CCCCCC4)ccc31)[C@H](c1ccc(OCCO)cc1)N1[C@H](c3ccccc3)[C@H](c3ccccc3)OC(=O)[C@H]1[C@@H]2C(N)=O
3. O=C1O[C@@H](c2ccccc2)[C@@H](c2ccccc2)N2[C@@H](c3ccc(OCCO)cc3)[C@]3(C(=O)Nc4ccc(C#CCCO)cc43)[C@@H](C(=O)Nc3nc4ccccc4s3)[C@H]12
4. C=CCC(OC(C)=O)[C@@H]1[C@@H](N(Cc2cc3ccccc3o2)C(=O)Cc2ccc(OC)cc2)c2cc(OCCCO)ccc2N1C(=O)Cc1ccc2ccccc2c1 (stereo not given in full)
5. NCCCC[C@@H]1NC(=O)[C@H]2C[C@@H](C(=O)NCc3ccc(F)cc3)[C@@H](c3ccc(O)cc3)N2C1=O
6. CN(C)CCCNC(=O)[C@@H]1c2ccccc2C(=O)N(C2Cc3ccccc3C2)[C@H]1c1ccc(CO)cc1

Result:
1: 0.752 (inactive); 2: 1.82 (inactive); 3: 0.762 (inactive); 4: -0.282 (inactive); 5: 0.903 (inactive); 6: 0.498 (inactive)

Batch request: z-score per item, same order as input.
1. CC(=O)c1ccc(C(O)C2C=CC3C(=O)N(C)C(=O)C3N2NC(=O)OC(C)(C)C)cc1 (stereo not given)
2. CO[C@H]1O[C@H](CO)[C@@H](OC(=O)Nc2ccccc2)[C@@H]2OC(=O)[C@H](Cc3ccccc3)C/C=C/C[C@@H](Cc3ccccc3)C(=O)O[C@@H]12
3. CCCCC(O)C1C=CC2C(=O)N(C)C(=O)C2N1Nc1ccccc1 (stereo not given)
4. Cc1ccc(S(=O)(=O)N2[C@@H](c3ccccc3)C(C(=O)O)=CC[C@H]2c2ccc(C#N)cc2)cc1

Result:
1. -0.455 (inactive)
2. -3.35 (inactive)
3. -1.32 (inactive)
4. -0.229 (inactive)

Batch request: z-score per item, same order as input.
1. C=CC[C@]1(C(=O)N(C)C)COC(c2ccc(OCCCO)cc2)=N1
2. C=CCNC(=O)[C@H]1[C@@H]2C(=O)O[C@@H](c3ccccc3)[C@@H](c3ccccc3)N2[C@@H](c2ccccc2OCCO)[C@]12C(=O)N(C(=O)OCCOC)c1ccccc12

Result:
1: -0.898 (inactive); 2: 1.14 (inactive)
